- target-under-test: Lyn (Homo sapiens (Human))
- Sequence (P07948 whole entry): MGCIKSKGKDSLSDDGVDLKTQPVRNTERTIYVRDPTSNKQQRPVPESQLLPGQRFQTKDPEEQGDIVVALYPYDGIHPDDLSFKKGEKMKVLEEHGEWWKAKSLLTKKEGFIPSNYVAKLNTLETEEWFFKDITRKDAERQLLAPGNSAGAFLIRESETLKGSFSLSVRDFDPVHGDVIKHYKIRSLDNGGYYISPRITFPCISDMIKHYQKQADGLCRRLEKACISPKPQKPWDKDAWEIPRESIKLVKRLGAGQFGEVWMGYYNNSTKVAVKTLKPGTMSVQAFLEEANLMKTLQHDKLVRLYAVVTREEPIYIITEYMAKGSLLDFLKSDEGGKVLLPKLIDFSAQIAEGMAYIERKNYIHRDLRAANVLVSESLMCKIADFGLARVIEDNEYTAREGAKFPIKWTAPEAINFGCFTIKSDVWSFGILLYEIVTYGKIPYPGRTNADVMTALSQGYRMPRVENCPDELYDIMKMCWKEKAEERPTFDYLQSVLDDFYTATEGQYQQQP
- protocol-details: biochemical
- condition-context: Lyn IC50
pIC50: −log10 of the molar value.

- molecule: "CCN(CC)CCOc1ccc(Nc2cc3c(cn2)cc(-c2ccccc2)c(=O)n3C(C)C)nc1"
  target-under-test: "Lyn (Homo sapiens (Human))"
  pIC50: "6.00 to 7.00"
- molecule: "CCN(CC)CCOc1ccc(Nc2cc3c(cn2)cc(-c2ccccc2)c(=O)n3C2CCN(C)C2)nc1 (stereo not drawn)"
  target-under-test: "Lyn (Homo sapiens (Human))"
  pIC50: "6.00 to 7.00"
- molecule: "CN1CC[C@@H](n2c(=O)c(-c3c(F)cccc3F)cc3cnc(Nc4ccc(F)cn4)cc32)C1"
  target-under-test: "Lyn (Homo sapiens (Human))"
  pIC50: "6.00 to 7.00"
